# Target Or Test System: Protein translocase subunit SecA (Escherichia coli (strain K12))
# Protocol Text: Assay to Identify E. coli SecA ATPase Inhibitors
# Format: functional
# Design: scale not given: direction of the effect not stated beside the values
# Condition: 30 µM
Entries with a potency or affinity are not part of this list.

>  <Compound>
CCc1ccccc1NC(=O)N1CCn2cnc(COC)c2C1

>  <Target Or Test System>
Protein translocase subunit SecA (Escherichia coli (strain K12))

>  <Percent Effect (%)>
-3.57

$$$$
>  <Compound>
CN(CC1CC1)c1ccc2ccc(C(=O)NCCN3CCOCC3)cn12

>  <Target Or Test System>
Protein translocase subunit SecA (Escherichia coli (strain K12))

>  <Percent Effect (%)>
0.0454

$$$$
>  <Compound>
CN(Cc1ccccn1)C1CC2(CCN(Cc3cccnc3)CC2)C1

>  <Target Or Test System>
Protein translocase subunit SecA (Escherichia coli (strain K12))

>  <Percent Effect (%)>
-7.24

$$$$
>  <Compound>
COc1ccc(CN(Cc2cccnc2)CC2CCCO2)c(OC)c1 (configuration not stated)

>  <Target Or Test System>
Protein translocase subunit SecA (Escherichia coli (strain K12))

>  <Percent Effect (%)>
-1.69

$$$$
>  <Compound>
O=C(Nc1cc(F)ccc1OCC1CCCO1)N1CCCC1 (configuration not stated)

>  <Target Or Test System>
Protein translocase subunit SecA (Escherichia coli (strain K12))

>  <Percent Effect (%)>
-0.769

$$$$
>  <Compound>
Cc1nc(C)n(C2CCCN(C(=O)CCc3ccncc3)C2)n1 (configuration not stated)

>  <Target Or Test System>
Protein translocase subunit SecA (Escherichia coli (strain K12))

>  <Percent Effect (%)>
-5.25

$$$$
>  <Compound>
Cc1ccc(C)c(-c2csc(N)c2C#N)c1

>  <Target Or Test System>
Protein translocase subunit SecA (Escherichia coli (strain K12))

>  <Percent Effect (%)>
-2.81

$$$$
>  <Compound>
CCN(CC1CCCO1)C(=O)Nc1ccc(F)cc1OC (configuration not stated)

>  <Target Or Test System>
Protein translocase subunit SecA (Escherichia coli (strain K12))

>  <Percent Effect (%)>
-3.45

$$$$
>  <Compound>
COCCC(=O)N1CCC2(CN(Cc3ccc(OC)c(F)c3)C2)C1

>  <Target Or Test System>
Protein translocase subunit SecA (Escherichia coli (strain K12))

>  <Percent Effect (%)>
1.99

$$$$
>  <Compound>
Cn1cnnc1C1CCN(c2cncc(-n3cccn3)n2)CC1

>  <Target Or Test System>
Protein translocase subunit SecA (Escherichia coli (strain K12))

>  <Percent Effect (%)>
-2.06

$$$$
>  <Compound>
COc1ccc(-c2nccnc2C2CCN(C(C)=O)CC2)cc1

>  <Target Or Test System>
Protein translocase subunit SecA (Escherichia coli (strain K12))

>  <Percent Effect (%)>
-3.54

$$$$
>  <Compound>
CN(C)CC(=O)N1CCOCC2(C1)CN(c1ccccc1)C(=O)CO2 (configuration not stated)

>  <Target Or Test System>
Protein translocase subunit SecA (Escherichia coli (strain K12))

>  <Percent Effect (%)>
1.58

$$$$
